- target: T1, recombinant human HER2 extracellular domain protein (human, UniProt P04626 23-652)
- T1 construct: range 23-652; Range is printed for the immunogen/panning protein; also called ErbB2; recombinant HER2 protein
- procedure.details: BLI, Protein A capture
measured.property: kon (M⁻¹ s⁻¹)
The response must be a number in M⁻¹ s⁻¹ with no trailing unit.

Some entries whose results are on file:
binder	output.unit	kon
Hu2117HK-Mu16 (Fc fusion, name in Kabat numbering, scFv-hIgG1 Fc; not shown: human IgG1 Fc) scFv: EVQLVESGGGLVQPGGSLRLSCAASGFTYSSYGMSWVRQAPGKGLEWVASISGGGSYTKYPDSVKGRFTISRDNSKNTLYLQMNSLRAEDTAVYYCARDYAGFFDVWGQGTLVTVSSGGGGSGGGGSGGGGSDIQMTQSPSSLSASVGDRVTITCRSSQSLVHSGGNTYLHWYQQKPGKAPKLLIYKVSNRFSGVPSRFSGSGSGTDFTLTISSLQPEDFATYFCSQSTHVPYTFGQGTKVEIK	M⁻¹ s⁻¹	58200
Hu2117HK-Mu32 (Fc fusion, scFv-hIgG1 Fc; not shown: human IgG1 Fc) scFv: EVQLVESGGGLVQPGGSLRLSCAASGFTYSSYGMSWVRQAPGKGLEWVASISGGGSYTKYPDSVKGRFTISRDNSKNTLYLQMNSLRAEDTAVYYCARDYAGFFDVWGQGTLVTVSSGGGGSGGGGSGGGGSDIQMTQSPSSLSASVGDRVTITCRSSQSLVSSNGNTYLHWYQQKPGKAPKLLIYKVSNRFSGVPSRFSGSGSGTDFTLTISSLQPEDFATYFCSQSTHVPYTFGQGTKVEIK	M⁻¹ s⁻¹	60100

Proceeding to the next binder to report its kon.
Task item: Return value of kon for input Hu2117HK-Mu42 (Fc fusion, scFv-hIgG1 Fc; not shown: human IgG1 Fc) scFv: EVQLVESGGGLVQPGGSLRLSCAASGFTYSSYGMSWVRQAPGKGLEWVASISGSGSYTKYPDSVKGRFTISRDNSKNTLYLQMNSLRAEDTAVYYCARDYAGFFDVWGQGTLVTVSSGGGGSGGGGSGGGGSDIQMTQSPSSLSASVGDRVTITCRSSQSLVHSNGNTYLHWYQQKPGKAPKLLIYKVSNRFSGVPSRFSGSGSGTDFTLTISSLQPEDFATYFCSQSTHVPYTFGQGTKVEIK , no commentary.
Reply: 53000
